Listed molecules paired with reported pEC50
Tested on: Calu-6 cells
TEST SUMMARY: Compounds cellular killing in Calu-6 cancer line (Cell Titer-Glo, 6 days)
Type: cell-based, human
CONDITION: Homo sapiens, Calu-6, 144 h, 6 days incubation, cell viability by Cell Titer-Glo
pEC50: −log10 of the molar value.
MEASURE: pEC50

MOLECULE	MEASURE	READOUT NUMBER
COc1cc2c(cc1OCc1cc(O)cc(COc3cc4c(cc3OC)C(=O)N3CC5(CC5)C[C@H]3C=N4)c1)N=C[C@@H]1CC3(CC3)CN1C2=O [Compound 1-18]	pEC50	9.90
COc1cc2c(cc1OCc1cccc(COc3cc4c(cc3OC)C(=O)N3CC5(CC5)C[C@H]3CN4)c1)N=C[C@@H]1CC3(CC3)CN1C2=O [Compound 1-9]	pEC50	11.70
COc1cc2c(cc1OCCCCCOc1cc3c(cc1OC)C(=O)N1Cc4ccccc4C[C@H]1C=N3)N=C[C@@H]1CC3(CCN1C2=O)CC3 [Compound 1-20]	pEC50	10.80
COc1cc2c(cc1OCCCCCOc1cc3c(cc1OC)C(=O)N1Cc4ccccc4C[C@H]1CN3)N=C[C@@H]1CC3(CC3)CN1C2=O [Compound 1-2]	pEC50	10.28
COc1cc2c(cc1OCC13CC(COc4cc5c(cc4OC)C(=O)N4Cc6ccccc6C[C@H]4CN5)(C1)C3)N=C[C@@H]1CC3(CC3)CN1C2=O [Compound 1-12]	pEC50	6.97
COc1cc2c(cc1OCCCCCOc1cc3c(cc1OC)C(=O)N1CC4(CC4)C[C@H]1C=N3)N=C[C@@H]1Cc3ccccc3CN1C2=O [Compound 1-1]	pEC50	11.70

----------
System: A375 cells
TEST SUMMARY: Compounds cellular killing in A375 cancer line (Cell Titer-Glo, 6 days)
Type: cell-based, human
CONDITION: Homo sapiens, A-375, 144 h, 6 days incubation, cell viability by Cell Titer-Glo
Experimental: A375 (ATCC, CRL-1619). […] The base medium for A375 is DMEM, high glucose, GlutaMAX™ Supplement (Gibco, 10566024). To make the complete growth medium, fetal bovine serum was added to the base mediumat a final concentration of 10% (Gibco, 10099-141C). […] Payload direct killing by compounds 1-1 to 1-22 was assessed in A375 and Calu-6 cancer cell lines. […] The cell viability detected by Cell Titer-Glo (Promega, G7573), 70 μL/well. […] The plates were analyzed with a microplate reader.
pEC50: −log10 of the molar value.
Listed molecules paired with reported pEC50

SMILES STR	pEC50
COc1cc2c(cc1OCCCCCOc1cc3c(cc1OC)C(=O)N1CC4(CC4)C[C@H]1CN3)N=C[C@@H]1Cc3ccccc3CN1C2=O	11.70
C=C1C[C@H]2C=Nc3cc(OCCN(C)CCOc4cc5c(cc4OC)C(=O)N4CC(=C)C[C@H]4C=N5)c(OC)cc3C(=O)N2C1	8.26
COc1ccc(C2=CN3C(=O)c4cc(OC)c(OCCCCCOc5cc6c(cc5OC)C(=O)N5CCC7(CC7)C[C@H]5C=N6)cc4NC[C@@H]3C2)cc1	10.17
C=C1C[C@H]2C=Nc3cc(OCCNCCOc4cc5c(cc4OC)C(=O)N4CC(=C)C[C@H]4C=N5)c(OC)cc3C(=O)N2C1	8.38
COc1cc2c(cc1OCCCOc1cc3c(cc1OC)C(=O)N1CC4(CC4)C[C@H]1CN3)N=C[C@@H]1Cc3ccccc3CN1C2=O	9.87
COc1cc2c(cc1OCCCCCOc1cc3c(cc1OC)C(=O)N1CC4(CC4)C[C@H]1CN3)NC[C@@H]1Cc3ccccc3CN1C2=O	9.85
